Where do the numbers come from? From PubChem BioAssay (NCI).

- Test system: OVCAR-3 ovarian
- Experiment summary: NCI tumour cell line growth inhibition, 48 h
Where a SMILES comes first, the peptide text is derived from it. [ ]: non-standard residue; d: D form. The star is where a group is joined. ξ: configuration not given here. ξD = NC(CC(=O)O)C(=O)O; Ac3c = NC1(C(=O)O)CC1; Boc = CC(C)(C)OC(=O)*; OBn = c1ccc(CO*)cc1
TGI values, listed per item

Reference set, count: 4
{"Compound": "COc1ccc(C[C@H](N)C(=O)N2C[C@H](CO)C[C@H](n3ccc(=O)[nH]c3=O)C2)cc1", "TGI": "> 100 µM"}
{"Compound": "CCNC(=O)/C=C/CCC#Cc1ccc(-c2ccc(-c3cccs3)s2)s1", "TGI": "> 100 µM"}
{"Compound": "COC(=O)C1(NC(=O)C(CC(=O)OCc2ccccc2)NC(=O)OC(C)(C)C)CC1 (stereo not given) (Boc-[ξD](OBn)-[Ac3c]-OMe)", "TGI": "> 100 µM"}
{"Compound": "CCNc1c(C(=O)N(CC)CC)c(=O)[nH]c2ncccc12", "TGI": "> 100 µM"}

Query block: Could you please provide reported TGI for Cc1cccc2nc3cccc(C(=O)NCCC[N+](C)(CCCNC(=O)c4cccc5nc6cccc(C)c6nc45)Cc4c([N+](=O)[O-])ncn4C)c3nc12 ? Thanks!
Result block: > 1100 µM

Query block: Query TGI for O=C1C=C2CO[C@H]3OC[C@H](O)[C@@H]1[C@@H]23
Result block: > 100 µM

Query block: Indicate the recorded TGI value for this compound: CS(=O)(=O)N(CCC#N)c1ccc(/C=N/NC(=O)CC(=O)Nc2cccc(Cl)c2)cc1
Result block: > 100 µM

Query block: Fill in TGI for record N#CCCN(CCC#N)c1ccc(/C=C2\N=C(COc3ccc(Cl)cc3Cl)OC2=O)cc1
Result block: > 100 µM

Query block: Tell me TGI reported for NC1C2C(CC(=O)O)OCC=C3CN4CCC1(C(=O)C(=O)O)C4CC32 (stereo not given)
Result block: > 100 µM

Query block: Quote TGI reported for c1cc(C[S+]2CCCC2)ccc1C[S+]1CCCC1 please.
Result block: > 100 µM

---

- System: MOLT-4 leukemia
- Experiment summary: NCI tumour cell line growth inhibition, 48 h
The entries below come with measured TGI values attached.

Query block: Write down TGI measured for item O=C1c2ccccc2-c2nccc3cc(Cl)nc1c23
Result block: > 26.8 µM

Query block: Name the recorded TGI of the item ON(CCc1ccncc1)Cc1ccccc1 in your answer.
Result block: > 100 µM

Query block: Give a short answer stating reported TGI for O=[N+]([O-])c1cc(O)c(O)cc1-c1cn2ccsc2n1 .
Result block: > 100 µM

Query block: Report TGI, nothing else, for this compound: O=C1CSC2=NCC3(NN12)c1ccccc1-c1ccccc13
Result block: > 10 µM

Query block: State, in one line, measured TGI of Cc1cc(=O)c2cc(N=Cc3ccc([N+](=O)[O-])o3)ccc2o1
Result block: > 100 µM

Query block: Input Cc1cc(=O)n2nc(CSc3nnc(N)s3)sc2n1 , output reported TGI.
Result block: > 100 µM

---

- System: OVCAR-3 ovarian
- Experiment summary: NCI tumour cell line growth inhibition, 48 h
The entries below come with measured TGI values attached.

{"Compound": "CO/C(=N\\N=C\\c1ccc(Cl)cc1Cl)c1ccncc1", "Test system": "OVCAR-3 ovarian", "TGI": "> 10 µM"}
{"Compound": "C=CCN(c1cc(OCc2ccccc2)c(NC(C)=O)cc1[N+](=O)[O-])S(C)(=O)=O", "Test system": "OVCAR-3 ovarian", "TGI": "> 100 µM"}
{"Compound": "O=C1OC2(C(F)(F)F)Oc3ccccc3CN2C12CCCCC2 (configuration not stated)", "Test system": "OVCAR-3 ovarian", "TGI": "> 100 µM"}
{"Compound": "Nc1ccc(-c2nc3cc(F)ccc3s2)cc1I", "Test system": "OVCAR-3 ovarian", "TGI": "> 37.9 µM"}
{"Compound": "CCOC(=O)/C(C#N)=C/c1ccc(CO)o1", "Test system": "OVCAR-3 ovarian", "TGI": "> 100 µM"}
{"Compound": "COc1cccc2c1C1(O)C2CCCC12OCCCO2 (configuration not stated)", "Test system": "OVCAR-3 ovarian", "TGI": "> 100 µM"}

Query block: Retrieve TGI measured for OCC(Cn1cncn1)(c1ccc(F)cc1F)n1cncn1 (configuration not stated) and print it.
Result block: > 100 µM

---

- Tested on: KM12 colon
- Experiment summary: NCI tumour cell line growth inhibition, 48 h
Where a SMILES comes first, the peptide text is derived from it. [ ]: non-standard residue; d: D form. The star is where a group is joined. ξ: configuration not given here. ξD = NC(CC(=O)O)C(=O)O; Ac3c = NC1(C(=O)O)CC1; Boc = CC(C)(C)OC(=O)*; OBn = c1ccc(CO*)cc1
The entries below come with measured TGI values attached.

Please review the entries below; each comes with its answer.
{"Compound": "COc1c(OC)c(O)c2c(=O)c(OC)c(-c3ccc4c(c3)OCO4)oc2c1O", "Reading": "> 100 µM"}
{"Compound": "CC(=N\\O)/C(C)=N/O.CC(=N\\O)/C(C)=N/O.CC(=N\\O)/C(C)=N/O.CC(=N\\O)/C(C)=N/O.[Cu].[Cu]", "Reading": "36.4 µM"}
{"Compound": "CCN(CC)CC(=O)/C=C/c1ccc(C)cc1", "Reading": "39 µM"}
{"Compound": "OCC(O)C1OC2CC1Nc1ccccc1N2 (stereo unspecified)", "Reading": "> 100 µM"}
{"Compound": "O=C(NNc1cn[nH]c(=O)c1Cl)/C(=C/c1ccc2c(c1)OCO2)NC(=O)c1ccccc1", "Reading": "> 100 µM"}

For the next question, use this compound.
Query block: Using the record for COC(=O)C1(NC(=O)C(CC(=O)OCc2ccccc2)NC(=O)OC(C)(C)C)CC1 (stereo unspecified) (Boc-[ξD](OBn)-[Ac3c]-OMe) , state its measured TGI.
Result block: > 100 µM

---

Items are presented alongside their recorded TGI.
- System: HCT-15 colon
- Experiment summary: NCI tumour cell line growth inhibition, 48 h
Give the value, in units of µM, as a plain number.

{"Input smiles": "Cc1nc2cncc(C#Cc3cncc(C(=O)Nc4ccc(CN5CCN(C)CC5)c(C(F)(F)F)c4)c3)c2nc1C", "Recorded endpoint": "TGI", "Unit descriptor": "µM", "Reading": 5.92}

Now take the following compound into account.
Query block: Quote HCT-15 colon TGI for entry OCc1cccc(-c2ccc3ncc(-c4nc(NC5CC5)ncc4F)n3c2)c1 .
Result block: 1.39

---

- Test system: HOP-62 NSCLC
- Experiment summary: NCI tumour cell line growth inhibition, 48 h
Recorded endpoint: TGI

Before answering, review these 3 worked examples.
{"Compound": "COc1ccc(C[C@H](N)C(=O)N2C[C@H](CO)C[C@H](n3ccc(=O)[nH]c3=O)C2)cc1", "TGI": "> 100 µM"}
{"Compound": "CC(C)(C)OC(=O)NC(Cc1ccc(O)cn1)C(N)=O (centres undefined)", "TGI": "> 100 µM"}
{"Compound": "CC1CCc2c(sc3ncnc(N/N=C/c4ccc(Cl)c(Cl)c4)c23)C1 (centres undefined)", "TGI": "> 100 µM"}

As a next step, examine the compound that follows.
Query block: Please supply the value of reported TGI for the item CCN(CC)c1ccc(N=C2C=C(C(=O)Nc3ccc(S(C)(=O)=O)cc3)C(=O)c3ccccc32)c(C)c1
Result block: > 100 µM

---

- System: ACHN renal
- Experiment summary: NCI tumour cell line growth inhibition, 48 h
Recorded endpoint: TGI

{"Compound": "Cc1cccc2nc3cccc(C(=O)NCCC[N+](C)(CCCNC(=O)c4cccc5nc6cccc(C)c6nc45)Cc4c([N+](=O)[O-])ncn4C)c3nc12", "Reading": "> 1100 µM"}

Query block: Give TGI for the following compound: CC(C)COC(=O)N1N=NC2C3OC(CC3=O)C21 (stereo not given)
Result block: > 100 µM

Query block: Quickly give me recorded TGI for Cc1cc(=O)n2nc(CSc3nnc(N)s3)sc2n1
Result block: > 100 µM

Query block: Quote TGI reported for CC(=O)NC1=C(C)C(=O)c2c(nc3n2CCC3O)C1=O (stereo not given) please.
Result block: > 100 µM

Query block: Dear colleague, please send me the reported TGI for COc1cccc2c1C1(O)C2CCCC12OCCCO2 (stereo not given) when you can.
Result block: > 100 µM

---

- System: UO-31 renal
- Experiment summary: NCI tumour cell line growth inhibition, 48 h
Recorded endpoint: TGI

The examples below pair each entry with its known result.
{"Compound": "CC1=C(C)CC2(SC1)C(=O)c1ccccc1C2=O", "Recorded endpoint": "TGI", "Reading": "> 100 µM"}
{"Compound": "COc1ccc(-c2nsc3c2NC(=O)CC3c2ccc3c(c2)OCO3)cc1 (stereo not drawn)", "Recorded endpoint": "TGI", "Reading": "> 100 µM"}

Could you now consider this next compound?
Query block: # return recorded TGI for entry C[C@]12CC/C(=N\N)C[C@@H]1CC[C@@H]1[C@@H]2CC[C@]2(C)/C(=N/N)CC[C@@H]12
Result block: > 100 µM
